Item-by-item account of growth inhibition
# Assay explanation: NCI Yeast Anticancer Drug Screen. Data for the cln2 rad14 strain (AID 165);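 also: 0% = growth equal to vehicle treated cultures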
# Assay conditions: S. cerevisiae cln2 rad14 strain, at 50.0 µM, stronger effect = higher value
This is part of a sample that, as a whole, favours compounds with a hit. Of some 79,000 tested, about 15% had one in any assay.
Your answer should be a plain number; it is taken to be in %.

Answered cases to consult:
CC(C)C(=O)OCCCc1ccccc1 | 7.45
CN1[C@@H]2C[C@@H](OC(=O)[C@H](CO)c3ccccc3)C[C@H]1[C@@H]1O[C@@H]12 | -20.4
O=[N+]([O-])c1ccc(N=Nc2ccc(O)c3c(O)cc(S(=O)(=O)O)cc23)cc1S(=O)(=O)O | -24.8
c1ccc(N2CCN(c3ccccc3)C2)cc1 | 8.65
O=c1[nH]cc(Cl)cc1[N+](=O)[O-] | 2.3

Problem: So what's the measured growth inhibition for this one? `O=C(CCN1CCCCC1)Nc1ccc2sc3ccccc3c(=O)c2n1`
Result: 9.1

Problem: Note, next up: `C=C(C)CS(=O)(=O)Cc1ccccc1`
Result: -40.9

Problem: Okay, and `N#CCCCCCCCCCC#N` ?
Result: 25.9

Problem: What do you have for `C(=C\c1cccs1)/c1csnn1` ?
Result: 12.8

Problem: How about NC(=S)N/N=C1\C(=O)NC(=O)C1c1ccccc1 (stereo not given) ?
Result: 0.45
